Known pIC50 of a selection of compounds
- Test system: intracellular HBV DNA
- test-details: Real-time PCR for intracellular HBV DNA in HepAD38 cells
- Type: cell-based
- run-conditions: Hepatitis B virus, HePAD38, 65 h, 65 hours treatment
pIC50: −log10 of the molar value.
endpoint-name: pIC50

> print(dat)
                                     smiles  relation.qualifier  data.value
1  COc1ccc(N(Cc2n[nH]c(C(F)(F)F)c2C)C(=O)Nc2ccc(F)c(Cl)c2)cn1                   =        7.52
2  CC(C)(O)c1ccc(N(Cc2n[nH]c3c2CCCO3)C(=O)Nc2ccc(F)c(Cl)c2)cn1                   <        5.96
3  COc1cncc(N(Cc2cc(C(F)F)[nH]n2)C(=O)Nc2ccc(F)c(Cl)c2)c1                   =        7.44
4  COc1ncc(N(Cc2n[nH]c(C(F)F)c2CC(C)(C)O)C(=O)Nc2ccc(F)c(C(F)F)c2)cn1                   <        5.96
5  COc1cc(N(Cc2cc(C(F)F)[nH]n2)C(=O)Nc2ccc(F)c(Cl)c2)cnn1                   =        6.05
6  COc1ncc(N(Cc2cc(C(F)(F)F)[nH]n2)C(=O)Nc2ccc(Cl)nc2Cl)cn1                   <        5.96
7  COc1ncc(N(Cc2cc(C(F)(F)F)[nH]n2)C(=O)Nc2ccc(C#N)c(C(F)F)c2)cn1                   =        7.59
8  COCc1c(CN(C(=O)Nc2ccc(F)c(Cl)c2)c2ccc(OC)nc2)n[nH]c1C(F)F                   <        5.96

----------
Each item that follows carries a reported viability at 65 h, 100 µM.
- test-details: Cell viability assay (EZ-Cytox), cytotoxicity
- Assay type: cell-based
- run-conditions: human, HepAD38 cells, @100 μM, read-out: Cytotoxicity % Livability (@100 μM)
endpoint-name: viability at 65 h, 100 µM (%)

> print(dat)
                                    molecule              endpoint.name  value.units  data.value
 1  COc1ccc(N(Cc2cc(C(C)C)[nH]n2)C(=O)Nc2ccc(F)c(Cl)c2)cn1 [Example 58]  viability at 65 h, 100 µM            %        92.7
 2  COc1ccc(N(Cc2cc(C(F)(F)F)[nH]n2)C(=O)Nc2ccc(F)c(Cl)c2)nn1 [Example 96]  viability at 65 h, 100 µM            %        93.4
 3  COc1ncc(N(Cc2cc(C#N)[nH]n2)C(=O)Nc2ccc(C#N)c(C(F)F)c2)cn1 [Example 153]  viability at 65 h, 100 µM            %        94.2
 4  COc1ncc(N(Cc2n[nH]c(C(F)(F)F)c2C(C)(C)O)C(=O)Nc2ccc(F)c(Cl)c2)cn1 [Example 102]  viability at 65 h, 100 µM            %         3.8
 5  CCc1cc(CN(C(=O)Nc2ccc(F)c(Cl)c2)c2ccc(OC)nc2)n[nH]1 [Example 60]  viability at 65 h, 100 µM            %          76
 6  COc1ccc(N(Cc2n[nH]c3c2C2CCC3C2)C(=O)Nc2ccc(F)c(Cl)c2)cn1 (centres unmarked) [Example 51]  viability at 65 h, 100 µM            %        36.7
 7  COc1ncc(N(Cc2cc(C(F)(F)F)[nH]n2)C(=O)Nc2cc(C)c(F)c(Cl)n2)cn1 [Example 142]  viability at 65 h, 100 µM            %          21
 8  COc1ncc(N(Cc2cc(C(F)(F)F)[nH]n2)C(=O)Nc2ccc(F)c(C#N)c2)cn1 [Example 154]  viability at 65 h, 100 µM            %          73
 9  COc1ncc(N(Cc2cc(C(F)(F)F)[nH]n2)C(=O)Nc2nccc(-n3ccnc3)c2F)cn1 [Example 3]  viability at 65 h, 100 µM            %        74.2
10  COc1ncc(N(Cc2cc(C#N)[nH]n2)C(=O)Nc2cc(F)c(F)c(F)c2)cn1 [Example 223]  viability at 65 h, 100 µM            %        87.5
11  COc1ncc(N(Cc2cc(C(F)(F)F)[nH]n2)C(=O)Nc2ccc(C(F)F)c(F)c2)cn1 [Example 206]  viability at 65 h, 100 µM            %        89.6
12  COc1ncc(N(Cc2cc(C(F)(F)F)[nH]n2)C(=O)Nc2cc(F)c(F)c(F)c2)cn1 [Example 219]  viability at 65 h, 100 µM            %        53.7
13  O=C(Nc1ccc(F)c(Cl)c1)N(Cc1n[nH]c2c1CCCC2)c1ccc(=O)[nH]c1 [Example 14]  viability at 65 h, 100 µM            %        95.4
14  COc1ncc(N(Cc2cc(C(F)(F)F)[nH]n2)C(=O)Nc2cc(N(C)C)c(F)c(Cl)n2)cn1 [Example 138]  viability at 65 h, 100 µM            %        71.9
15  COc1ccc(N(Cc2n[nH]c3c2CCC3)C(=O)Nc2ccc(F)c(Cl)c2)cc1 [Example 46]  viability at 65 h, 100 µM            %         100
16  CC(C)(O)c1cc(N(Cc2n[nH]c3c2CCCO3)C(=O)Nc2ccc(F)c(Cl)c2)on1 [Example 109]  viability at 65 h, 100 µM            %          82
17  CC(C)(O)c1cc(N(Cc2n[nH]c3c2CCCO3)C(=O)Nc2ccc(F)c(Cl)c2)ccn1 [Example 113]  viability at 65 h, 100 µM            %         102
18  COc1ccc(N(Cc2n[nH]c3ccccc23)C(=O)Nc2ccc(F)c(Cl)c2)cn1 [Example 43]  viability at 65 h, 100 µM            %          92
19  COc1ncc(N(Cc2cc(C(F)(F)F)[nH]n2)C(=O)Nc2cc(F)c(F)c(Cl)n2)cn1 [Example 13]  viability at 65 h, 100 µM            %         100
20  COC12CC(N(Cc3cc(C(F)(F)F)[nH]n3)C(=O)Nc3ccc(F)c(C(F)F)n3)(C1)C2 [Example 214]  viability at 65 h, 100 µM            %        76.8
21  O=C(Nc1ccc(F)c(Cl)c1)N(Cc1n[nH]c2c1CCCO2)c1ccon1 [Example 136]  viability at 65 h, 100 µM            %         7.3
22  N#Cc1cc(N(Cc2n[nH]c3c2CCOC3)C(=O)Nc2ccc(F)c(Cl)c2)ccn1 [Example 128]  viability at 65 h, 100 µM            %        65.9
23  COC(=O)c1ccc(N(Cc2n[nH]c3c2CCCC3)C(=O)Nc2ccc(F)c(Cl)c2)cc1 [Example 31]  viability at 65 h, 100 µM            %        91.2
24  COc1cc(N(Cc2cc(C(F)(F)F)[nH]n2)C(=O)Nc2ccc(F)c(Cl)c2)ccn1 [Example 74]  viability at 65 h, 100 µM            %        55.6
25  O=C(O)c1ccc(N(Cc2n[nH]c3c2CCCC3)C(=O)Nc2ccc(F)c(Cl)c2)cc1 [Example 131]  viability at 65 h, 100 µM            %         100
26  COc1ncc(N(Cc2cc(C(F)(F)F)[nH]n2)C(=O)Nc2ccc(C#N)c(Cl)c2)cn1 [Example 7]  viability at 65 h, 100 µM            %        59.3
27  COc1ncc(N(Cc2cc(C#N)[nH]n2)C(=O)Nc2ccc(F)c(C(F)(F)F)c2)cn1 [Example 215]  viability at 65 h, 100 µM            %          67
28  Cn1cc(N(Cc2n[nH]c3c2CCC3)C(=O)Nc2ccc(F)c(Cl)c2)ccc1=O [Example 65]  viability at 65 h, 100 µM            %         112
29  CC(C)(O)c1cc(N(Cc2n[nH]c3c2CCOC3)C(=O)Nc2ccc(F)c(Cl)c2)on1 [Example 115]  viability at 65 h, 100 µM            %        84.1
30  COC12CC(N(Cc3cc(C(F)(F)F)[nH]n3)C(=O)Nc3ccc(F)c(Cl)c3)(C1)C2 [Example 105]  viability at 65 h, 100 µM            %         3.5
31  COc1cncc(N(Cc2n[nH]c3c2COCC3)C(=O)Nc2ccc(F)c(Cl)c2)c1 [Example 75]  viability at 65 h, 100 µM            %        92.1
32  COc1ccc(N(Cc2n[nH]c3c2CCCC3)C(=O)Nc2ccc(F)c(Cl)c2)cn1 [Example 42]  viability at 65 h, 100 µM            %        99.5
